Hello, the source for this data is PubChem BioAssay AID2060900, in case you need it.

# Tested on: 521955-158-R2-J5-PDC complex spheroids, viability
# measurement_notes: Anticancer human tumor 521955-158-R2-J5-PDC patient-derived pancreatic carcinoma cell line growth inhibition [RAS]
# assay_conditions: curve of first compound; second compound 0.003 µM
pIC50: −log10 of the molar value.
measured_property: pIC50

Note to self: pIC50 recorded for CC1(C)CCC(Nc2ncc(C(F)(F)F)c(-c3c[nH]c4c(P(C)(C)=O)c(C#N)ccc34)n2)CN1 (stereo not drawn) + CCn1c(-c2cc(N3CCN(C)CC3)cnc2C(C)OC)c2c3cc(ccc31)-c1csc(n1)CC(NC(=O)C1CC1C)C(=O)N1CCCC(N1)C(=O)OCC(C)(C)C2 was > 9.02

Memo: CC1(O)CCCC1n1c(=O)c(C(F)F)cc2cnc(NC3CCN(S(C)(=O)=O)CC3)nc21 (stereo not drawn) + CCn1c(-c2cc(N3CCN(C)CC3)cnc2C(C)OC)c2c3cc(ccc31)-c1csc(n1)CC(NC(=O)C1CC1C)C(=O)N1CCCC(N1)C(=O)OCC(C)(C)C2 , reported pIC50: > 7.50

Now for a further compound.
// sample C[C@@H](NC(=O)c1ncnc(N)c1Cl)c1ncc(C(=O)Nc2cc(C(F)(F)F)c(Cl)cn2)s1 + CCn1c(-c2cccnc2C(C)OC)c2c3cc(ccc31)N1CCOC(CC(NC(=O)C(C(C)C)N(C)C(=O)C3(F)CCN(C(=O)C#CC(C)(C)N(C)C)CC3)C(=O)N3CCCC(N3)C(=O)OCC(C)(C)C2)C1 , its pIC50 was < 5.00

====

Let's look at some compounds and their measured viability, T/C.
# System: 521955-158-R2-J5-PDC complex spheroids, viability
# measurement_notes: Anticancer human tumor 521955-158-R2-J5-PDC cell line growth inhibition [RAS];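 also: compound exposure lasted seven days before the viability read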;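 as to viability, T/C: spheroids also contain HUVEC endothelial cells and mesenchymal stem cells as stroma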
# assay_conditions: second compound 1 µM; first compound 1 µM; stronger effect = lower value
Write the value in % as a bare number.

Entry CC(C)NCC(C(=O)N1CCN(c2ncnc3c2C(C)CC3O)CC1)c1ccc(Cl)cc1 (stereo not drawn) + C=CC(=O)N1CCN(c2nc(OCC3CCCN3C)nc3c(F)c(-c4nc(N)cc(C)c4C(F)(F)F)c(Cl)cc23)C(C)C1 — recorded viability, T/C = 71.3

Entry under test: Nc1ccn(C2OC(CO)C(O)C2(F)F)c(=O)n1 (stereo not drawn) + C=CC(=O)N1CCN(c2nc(OCC3CCCN3C)nc3c(F)c(-c4nc(N)cc(C)c4C(F)(F)F)c(Cl)cc23)C(C)C1 . Its viability, T/C was 13

Moving on to the next compound.
Entry CC1(O)CCCC1n1c(=O)c(C(F)F)cc2cnc(NC3CCN(S(C)(=O)=O)CC3)nc21 (stereo not drawn) + C#Cc1c(F)ccc2cc(O)cc(-c3ncc4c(N5CC6CCC(C5)N6)nc(OCC56CCCN5CC(F)C6)nc4c3F)c12 , viability, T/C reported as 47.8

====

# System: 521955-158-R2-J5-PDC complex spheroids, viability
# measurement_notes: Anticancer human tumor 521955-158-R2-J5-PDC cell line growth inhibition [RAS];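 also: compound exposure lasted seven days before the viability read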
# assay_conditions: curve of first compound; second compound 0.00316 µM
pIC50: −log10 of the molar value.
measured_property: pIC50

Field pIC50 (521955-158-R2-J5-PDC complex spheroids, viability), entry CC1(C)CCC(Nc2ncc(C(F)(F)F)c(-c3c[nH]c4c(P(C)(C)=O)c(C#N)ccc34)n2)CN1 (configuration not stated) + C=CC(=O)N1CCN(c2nc(OCC3CCCN3C)nc3c(F)c(-c4nc(N)cc(C)c4C(F)(F)F)c(Cl)cc23)C(C)C1 : < 6.52

Given the molecule Cc1nc(N2CCC3(CC2)COC(C)C3N)c(CO)nc1Sc1ccnc(N)c1Cl (configuration not stated) + C=CC(=O)N1CCN(c2nc(OCC3CCCN3C)nc3c(F)c(-c4nc(N)cc(C)c4C(F)(F)F)c(Cl)cc23)C(C)C1 and test system 521955-158-R2-J5-PDC complex spheroids, viability, the measured pIC50 is < 5.00

pIC50 of NC1c2ccccc2OC12CCN(c1cnc3c(N4CCCc5ncccc54)n[nH]c3n1)CC2 (configuration not stated) + C=CC(=O)N1CCN(c2nc(OCC3CCCN3C)nc3c(F)c(-c4nc(N)cc(C)c4C(F)(F)F)c(Cl)cc23)C(C)C1 , assay on 521955-158-R2-J5-PDC complex spheroids, viability, is < 5.00

====

# System: 521955-158-R2-J5-PDC complex spheroids, viability
# measurement_notes: Anticancer human tumor 521955-158-R2-J5-PDC cell line growth inhibition [RAS];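 also: compound exposure lasted seven days before the viability read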
# assay_conditions: curve of first compound; second compound 0.00316 µM
# Source text: RAS pathway inhibitors in Combinations in Complex Spheroids A high-throughput screen of multi-cell type tumor spheroids was designed to identify active combinations of RAS pathway inhibitors and targeted small molecules. Complex spheroids include a stromal component modeled by human endothelial cells (HUVEC) and fibroblasts modeled by human mesenchymal stem cells (MSCs). […] Compounds. […] If the clinical Cmax for an agent had not been determined, the highest concentration tested was 10 microM. […]
measured_property: IC50

Record CC(=O)OC12COC1CC(O)C1(C)C(=O)C(O)C3=C(C)C(OC(=O)C(O)C(NC(=O)OC(C)(C)C)c4ccccc4)CC(O)(C(OC(=O)c4ccccc4)C21)C3(C)C (centres undefined) + C=CC(=O)N1CCN(c2nc(OCC3CCCN3C)nc3c(F)c(-c4nc(N)cc(C)c4C(F)(F)F)c(Cl)cc23)C(C)C1 , field IC50: < 0.0316 µM

Form field IC50, entry CCN1CCN(Cc2ccc(Nc3ncc(F)c(-c4cc(F)c5nc(C)n(C(C)C)c5c4)n3)nc2)CC1 + C=CC(=O)N1CCN(c2nc(OCC3CCCN3C)nc3c(F)c(-c4nc(N)cc(C)c4C(F)(F)F)c(Cl)cc23)C(C)C1 : > 1 µM

New cases:
# IC50 of CC(C)NCC(C(=O)N1CCN(c2ncnc3c2C(C)CC3O)CC1)c1ccc(Cl)cc1 (centres undefined) + C=CC(=O)N1CCN(c2nc(OCC3CCCN3C)nc3c(F)c(-c4nc(N)cc(C)c4C(F)(F)F)c(Cl)cc23)C(C)C1 = > 10 µM

Record C[C@@H](NC(=O)c1ncnc(N)c1Cl)c1ncc(C(=O)Nc2cc(C(F)(F)F)c(Cl)cn2)s1 + C=CC(=O)N1CCN(c2nc(OCC3CCCN3C)nc3c(F)c(-c4nc(N)cc(C)c4C(F)(F)F)c(Cl)cc23)C(C)C1 , field IC50: > 10 µM
